Test system: PC-3 [JPC-3]
Assay: relative viability (nuclei count vs DMSO), 5 days (fraction); higher = more cells survive
Conditions: first compound 0.6325 µM
Values of relative viability strictly less than 1 map to Met, and values of at least 1 map to Not met.

Consider the worked cases shown below.
Ask | For this molecule, is relative viability lower than 1? CN1CCN(CCOc2cc(OC3CCOCC3)c3c(Nc4c(Cl)ccc5c4OCO5)ncnc3c2)CC1 [Saracatinib] + Cc1nc(NC(=O)N2CCC[C@H]2C(N)=O)sc1-c1ccnc(C(C)(C)C(F)(F)F)c1 [Alpelisib] (partner 2 µM)
Reply | Met

Ask | Threshold test, relative viability < 1: Cc1csc(=NC2CCCCC2)n1/N=C/c1ccc(O)c(O)c1O [MIM1] + N=C(N)NC(=N)NCCc1ccccc1 [Phenformin] (partner 250 µM)
Reply | Met

Ask | Check if relative viability falls below 1 for Cc1csc(=NC2CCCCC2)n1/N=C/c1ccc(O)c(O)c1O [MIM1] + Nc1nc2[nH]cc(CCc3ccc(C(=O)N[C@@H](CCC(=O)O)C(=O)O)cc3)c2c(=O)[nH]1 [Pemetrexed] (partner 0.2 µM) .
Reply | Not met

Field: next molecule
Ask | Could you please tell me whether relative viability recorded for Cc1csc(=NC2CCCCC2)n1/N=C/c1ccc(O)c(O)c1O [MIM1] + O=C(CCCCCCC(=O)Nc1ccccc1)NO [Vorinostat] (partner 1 µM) is less than 1?
Reply | Met

Reference source: the supplement of paper PMC10307832
